FYI, the data here is from patent US9512075B2.

This section presents compounds with their documented MIC values.
Test system: Staphylococcus aureus Smith strain
Test: MIC for Staphylococcus aureus Smith strain
Assay type: cell-based
Settings: Smith strain, regular bouillon medium, 37° C. overnight, turbidity, read-out: MIC Straphyrococcus aureus Smith
MEASUREMENT_LABEL: MIC (µg/mL)

CCCCCCCCCCOCC(O)=C1C(=O)N(C(=O)OC(C)(C)C)c2ccc(F)cc21 | 128
CCCCNC(=O)N1C(=O)C(=C(O)C2CCC(CCCC)CC2)c2ccccc21 (centres unmarked) | 256
CCCCCCCCCC(O)=C1C(=O)Nc2cc(Cl)ccc21 | 16
CCCCC1CCC(C(O)=C2C(=O)N(C(=O)Nc3ccc(F)cc3)c3ccccc32)CC1 (centres unmarked) | 1
CCCCCCCCCCOCC(O)=C1C(=O)N(C(C)=O)c2ccccc21 | 256
CCCCCCCCCC(=O)c1c(O)c2ccc(OC)cc2oc1=O [B001, 3-decanoyl-4-hydroxy-7-methoxycoumarin] | 128
CCCCCCCCOCC(O)=C1C(=O)N(C(=O)Nc2ccccc2)c2ccccc21 | 0.5
CCCCCCCCCC(O)=C1C(=O)N(C(=O)Nc2ccc(Br)cc2)c2ccccc21 | 256
CCCCCCCCCC(=O)N[C@@H](C)C(=O)c1c(O)c2ccccc2oc1=O | 256
CCCCCCCCCCOCC(O)=C1C(=O)N(C(=O)Nc2ccccc2)c2ccc(Br)cc21 | 8
CCCCCCCCCC(=O)N1C(=O)C(=C(O)CCCCCCCCC)c2ccccc21 | 64
CCCCCCCCCC(O)=C1C(=O)N(C(=O)Nc2ccc(OC)cc2)c2ccccc21 | 256
CCCCC1CCC(C(O)=C2C(=O)N(C(=O)Nc3ccc(Br)cc3)c3ccccc32)CC1 (centres unmarked) | 2
CCCCCCCCCCOCC(O)=C1C(=O)N(C(=O)Nc2ccc(OC)cc2)c2ccccc21 | 128
O=C(Nc1ccccc1)N1C(=O)C(=C(O)CCCCCCCCCBr)c2ccccc21 | 2
CCCCCCCCCC(=O)NCC(O)=C1C(=O)N(C(=O)OC(C)(C)C)c2ccccc21 | 128
CCCCCCCCCC(O)=C1C(=O)Nc2ccc(F)cc21 | 16

---

Tested on: Staphylococcus aureus 209P strain
Experiment: MIC for Staphylococcus aureus 209P strain
Format: cell-based
Conditions: Staphylococcus aureus; 209P strain; regular bouillon medium, 37° C. overnight, turbidity; read-out: MIC Straphyrococcus aureus 209P
MIC vs 100 µg/mL: less than gives Met; not less than gives Not met.

CCCCCCCCCC(=O)c1c(O)c2cc(Cl)ccc2oc1=O [B003, 6-chloro-3-decanoyl-4-hydroxycoumarin] | Met
CCCCCCCCOCC(O)=C1C(=O)N(C(=O)Nc2ccccc2)c2ccccc21 | Met
CCCCCCCCCCOCC(O)=C1C(=O)N(C(C)=O)c2ccccc21 | Not met
CCCCCCCCCC(O)=C1C(=O)N(C(=O)Nc2ccc(OC)cc2)c2ccc(F)cc21 | Not met
CCCCCCCCCCOCC(=O)c1c(O)c2cc(Cl)ccc2oc1=O | Not met
CCCCCCCCOCC(=O)c1c(O)c2ccccc2oc1=O [B030, 3-octyloxyacetyl-4-hydroxycoumarin] | Met
CCCCCCCCCCOCC(O)=C1C(=O)N(C(=O)Nc2ccc(OC)cc2)c2ccccc21 | Not met
CCCCC1CCC(C(O)=C2C(=O)N(C(=O)c3ccccc3)c3ccccc32)CC1 (stereo not drawn) | Met
CCCCC1CCC(C(O)=C2C(=O)N(C(=O)OC(C)(C)C)c3ccc(F)cc32)CC1 (stereo not drawn) | Not met

---

This section presents compounds with their documented log10(MIC) values.
Tested on: Staphylococcus aureus Smith strain
Test: MIC for Staphylococcus aureus Smith strain
Assay type: cell-based
Settings: read-out: MIC Straphyrococcus aureus Smith
MEASUREMENT_LABEL: log10(MIC) (log10 of the value in µg/mL)

CCCCCCCCOCC(=O)c1c(O)c2ccccc2oc1=O [B030, 3-octyloxyacetyl-4-hydroxycoumarin] | 0.30
CCCCCCCCCC(=O)N1C(=O)C(=C(O)c2ccc(F)cc2)c2ccccc21 | 0.30
CCCCCCCCCC(=O)N1C(=O)C(=C(O)c2ccc(OC)cc2)c2ccccc21 | 0.30
CCCCCCCCCC(O)=C1C(=O)N(C(=O)Nc2ccc(OC)cc2)c2ccc(F)cc21 | 2.41
CCCCCCCCCCOCC(=O)c1c(O)c2ccccc2oc1=O [B015, 3-decyloxyacetyl-4-hydroxycoumarin] | 0.30
CCCCCOCC(=O)c1c(O)c2ccccc2oc1=O [B021, 4-hydroxy-3-(pentyloxyacetyl)coumarin] | 2.11
CCCCCCCCCC(=O)c1c(O)c2cc(Cl)ccc2oc1=O [B003, 6-chloro-3-decanoyl-4-hydroxycoumarin] | -0.30
CCCCc1ccc(COCC(=O)c2c(O)c3ccccc3oc2=O)cc1 | 0.90
CCCCCCCCCCOC(C)C(=O)c1c(O)c2ccccc2oc1=O (stereo not shown) | 0.30
CCCCCCCCCC(=O)N1C(=O)/C(=C(\O)c2ccccc2)c2cc(F)ccc21 | -0.30

---

Test system: Escherichia coli BE1121 strain
Test: MIC for Escherichia coli BE1121 strain
Format: cell-based
Conditions: Escherichia coli, BE1121STRAIN; BE1121 strain; regular bouillon medium, 37° C. overnight, turbidity; read-out: MIC Escherichia coli BE1121
This section presents compounds with their documented MIC values.
MEASUREMENT_LABEL: MIC (µg/mL)

CCCCCCCCCC(=O)NCC(O)=C1C(=O)N(C(=O)OC(C)(C)C)c2ccccc21 | 128
CCCCCCCCCC(=O)c1c(O)c2cc(F)ccc2oc1=O [B004, 3-decanoyl-6-fluoro-4-hydroxycoumarin] | 2
CCCCCCCCCC(=O)N1C(=O)C(=C(C)O)c2ccccc21 | 16
CCCCCCCCCC(O)=C1C(=O)N(C(=O)Nc2ccccc2)c2ccc(Br)cc21 | 128
CCCCC1CCC(C(O)=C2C(=O)N(C(=O)OC(C)(C)C)c3cc(Cl)ccc32)CC1 (centres unmarked) | 128
CCCCCCCCCC(O)=C1C(=O)N(C(=O)Nc2ccc(OC)cc2)c2ccccc21 | 256
CCCCCCCCNC(=O)c1c(O)c2cc(F)ccc2oc1=O | 128
CCCCCCCCCCOCC(O)=C1C(=O)N(C(C)=O)c2cc(Cl)ccc21 | 128

---

System: Staphylococcus aureus MRSA No. 17 (methicillin-resistant Staphylococcus aureus: MRSA)
Test: MIC for Staphylococcus aureus MRSA No. 17
Assay type: cell-based
Settings: MRSA No. 17, regular bouillon medium, 37° C. overnight, turbidity, read-out: MIC Straphyrococcus aureus MRSA No. 17 (MRSA)
This section presents molecules with their documented MIC values.
MEASUREMENT_LABEL: MIC (µg/mL)

CCCCC1CCC(C(O)=C2C(=O)N(C(=O)OC(C)(C)C)c3cc(Cl)ccc32)CC1 (stereo not drawn) | 256
O=C(NCC(=O)c1c(O)c2ccccc2oc1=O)c1ccccc1 [B013, 3-benzoylaminoacetyl-4-hydroxycoumarin] | 256
CCCCCCCCCC(=O)NCC(=O)c1c(O)c2ccccc2oc1=O [B016, 3-decanoylaminoacetyl-4-hydroxycoumarin] | 256
CCCCCCCCCCOCC(O)=C1C(=O)N(C(=O)Nc2ccccc2)c2ccc(Br)cc21 | 64
CCCCNC(=O)N1C(=O)C(=C(O)C2CCC(CCCC)CC2)c2ccccc21 (stereo not drawn) | 256
CCCCCCCCCC(O)=C1C(=O)Nc2cc(Cl)ccc21 | 16
CCCCCCCCCCOCC(=O)c1c(O)c2cc(Cl)ccc2oc1=O | 256
CCCCC1CCC(C(O)=C2C(=O)N(C(=O)Nc3ccccc3)c3ccccc32)CC1 (stereo not drawn) | 256
CCCCCCCCCC(O)=C1C(=O)N(C(=O)Nc2ccc(F)cc2)c2ccccc21 | 256
CCCCCCCCCCOCC(O)=C1C(=O)N(C(=O)Nc2ccccc2)c2ccc(F)cc21 | 128
CCCCCCCCCC(=O)N1C(=O)/C(=C(/C)O)c2cc(F)ccc21 | 4
CCCCC1CCC(C(O)=C2C(=O)N(C(=O)Nc3ccccc3)c3ccc(Br)cc32)CC1 (stereo not drawn) | 64
CCCCC1CCC(C(O)=C2C(=O)N(C(=O)OC(C)(C)C)c3ccc(F)cc32)CC1 (stereo not drawn) | 128
CCCCCCCCCC(O)=C1C(=O)N(C(=O)Nc2ccc(OC(F)(F)F)cc2)c2ccccc21 | 256
CCCCCCCCCCOCC(=O)c1c(O)c2cc(C)ccc2oc1=O | 256

---

Tested on: Staphylococcus aureus 209P strain
Test: MIC for Staphylococcus aureus 209P strain
Format: cell-based
Settings: Staphylococcus aureus; 209P strain; regular bouillon medium, 37° C. overnight, turbidity; read-out: MIC Straphyrococcus aureus 209P
MEASUREMENT_LABEL: log10(MIC) (log10 of the value in µg/mL)

CCCCCCCCCCOCC(O)=C1C(=O)N(C(C)=O)c2cc(Cl)ccc21 | 2.11
CCCCCCCCCC(=O)N1C(=O)C(=C(O)c2ccccc2O)c2ccccc21 | 2.41
CCCCCCCCCCOCC(O)=C1C(=O)N(C(=O)OC(C)(C)C)c2ccc(F)cc21 | 2.11
CCCCCCCCCCOC(C)C(O)=C1C(=O)N(C(=O)Nc2ccccc2)c2ccccc21 (stereo not shown) | 2.11
CCCCCCCCCC(=O)c1c(O)c2cc(F)ccc2oc1=O [B004, 3-decanoyl-6-fluoro-4-hydroxycoumarin] | 0.00
CCCCCCCCCC(=O)N[C@@H](C)C(=O)c1c(O)c2ccccc2oc1=O | 2.41
CCCCCCCCCCOCC(O)=C1C(=O)N(C(C)=O)c2ccc(F)cc21 | 2.11
CCCCCCCCCC(O)=C1C(=O)N(C(=O)Nc2ccc(F)cc2)c2ccccc21 | 2.41
CCCCCCCCCC(O)=C1C(=O)N(C(=O)Nc2ccc(Br)cc2)c2ccccc21 | 2.41
CCCCCCCCCC(O)=C1C(=O)N(C(=O)Nc2ccc(OC(F)(F)F)cc2)c2ccccc21 | 2.41
CCCCCCCCCCCCNC(=O)c1c(O)c2ccccc2oc1=O | 0.90
CCCCC1CCC(C(O)=C2C(=O)N(C(=O)Nc3ccccc3)c3ccc(Br)cc32)CC1 (stereo not shown) | 1.51
CCCCCCCCCC(O)=C1C(=O)N(C(=O)Nc2ccc(OC)cc2)c2ccccc21 | 2.41
CCCCCCCCCCOCC(O)=C1C(=O)N(C(=O)Nc2ccc(OC)cc2)c2ccc(F)cc21 | 2.11
CCCCCCCCCCSCC(=O)c1c(O)c2ccccc2oc1=O | 0.00
CCCCCCCCCCSCC(O)=C1C(=O)N(C(C)=O)c2ccc(Br)cc21 | 0.30
